These data points were gathered from ChEMBL document CHEMBL2010782.

molecular target: Beta-1 adrenergic receptor (Homo sapiens, UniProt P08588); experiment: Agonist activity at human adrenergic beta1 receptor expressed in DHB-11 CHO cells assessed as cAMP accumulation after 20 mins by scintillation proximity assay
Sequence (P08588 whole entry): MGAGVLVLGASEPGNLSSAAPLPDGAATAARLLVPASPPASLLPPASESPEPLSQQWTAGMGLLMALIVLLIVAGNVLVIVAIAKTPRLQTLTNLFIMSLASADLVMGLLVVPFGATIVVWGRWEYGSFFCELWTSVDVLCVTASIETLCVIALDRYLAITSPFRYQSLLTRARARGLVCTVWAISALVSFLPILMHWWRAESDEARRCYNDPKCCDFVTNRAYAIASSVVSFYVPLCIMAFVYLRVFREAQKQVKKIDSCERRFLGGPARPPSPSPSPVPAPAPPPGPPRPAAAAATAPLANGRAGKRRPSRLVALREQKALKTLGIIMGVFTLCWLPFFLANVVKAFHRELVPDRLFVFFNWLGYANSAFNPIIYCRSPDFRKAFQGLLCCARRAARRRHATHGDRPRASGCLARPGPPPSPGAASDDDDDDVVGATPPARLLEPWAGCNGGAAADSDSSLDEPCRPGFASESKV
Readout kind: EC50

input: Using the record for CC(C)(Cc1ccc(Oc2ccc(C(N)=O)cn2)cc1)NC[C@H](O)COc1cccc2[nH]c3ccccc3c12 , report its EC50.
output: > 3.16 µM

----------
target: Beta-3 adrenergic receptor (Homo sapiens, UniProt P13945); experiment: Agonist activity at human adrenergic beta3 receptor expressed in DHB-11 CHO cells assessed as cAMP accumulation after 20 mins by scintillation proximity assay
Sequence (P13945 whole entry): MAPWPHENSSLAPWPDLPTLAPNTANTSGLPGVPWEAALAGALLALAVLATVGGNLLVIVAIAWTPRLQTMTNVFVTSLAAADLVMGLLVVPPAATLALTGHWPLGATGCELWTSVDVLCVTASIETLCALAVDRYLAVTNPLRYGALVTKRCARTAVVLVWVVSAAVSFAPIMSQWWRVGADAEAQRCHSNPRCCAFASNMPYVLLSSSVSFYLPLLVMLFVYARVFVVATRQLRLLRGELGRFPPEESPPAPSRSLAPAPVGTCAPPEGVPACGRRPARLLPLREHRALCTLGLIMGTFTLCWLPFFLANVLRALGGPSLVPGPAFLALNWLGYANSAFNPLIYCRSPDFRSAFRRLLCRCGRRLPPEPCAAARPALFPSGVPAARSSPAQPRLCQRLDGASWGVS
Readout kind: EC50 (nM)
Enter your answer as a number in nM; do not include the unit.

input: Short answer please: EC50, Beta-3 adrenergic receptor (Homo sapiens, UniProt P13945), entry CC(C)(Cc1ccc(Oc2ccc(C(N)=O)cn2)cc1)NC[C@H](O)COc1cccc2[nH]c3ccccc3c12
output: 2.4

----------
test: Elimination half life in healthy human at 60 mg; format: ADME, organism-based; details: in vivo, read-out: beta t1/2 (converted)
Readout kind: half-life (h)
Numbers only here, please. The scale is h.

input: # lookup: half-life of CC(C)(Cc1ccc(Oc2ccc(C(N)=O)cn2)cc1)NC[C@H](O)COc1cccc2[nH]c3ccccc3c12
output: 9
